Data credit: patent US11512090B2

# Target Of Assay: human M1 receptor (Homo sapiens)
# Sequence (P11229 whole entry): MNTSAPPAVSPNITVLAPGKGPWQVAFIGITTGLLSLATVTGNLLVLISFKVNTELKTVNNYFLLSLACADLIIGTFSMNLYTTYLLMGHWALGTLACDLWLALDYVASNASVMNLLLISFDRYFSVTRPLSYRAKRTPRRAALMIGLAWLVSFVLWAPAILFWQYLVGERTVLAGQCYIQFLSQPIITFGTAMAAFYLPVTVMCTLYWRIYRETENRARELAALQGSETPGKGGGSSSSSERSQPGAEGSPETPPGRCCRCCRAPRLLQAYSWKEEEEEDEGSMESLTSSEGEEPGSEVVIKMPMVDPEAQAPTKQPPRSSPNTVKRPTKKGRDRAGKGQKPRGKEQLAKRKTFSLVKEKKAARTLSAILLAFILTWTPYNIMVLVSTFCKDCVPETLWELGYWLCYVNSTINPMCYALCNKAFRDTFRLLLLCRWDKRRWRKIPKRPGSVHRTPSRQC
# Method: In vitro functional assay of muscarinic acetylcholine receptor activity (aequorin calcium flux, antagonist mode vs EC80 acetylcholine), M1
# Type: cell-based
# Procedure: CHO-K1 cells stably expressing human M1 receptor with Aequorin (Perkin Elmer) were grown in F12 media, 10% FBS with 0.4 mg/mL geneticin and […]. Cells were grown to confluence and frozen down to be assayed at a later date. […] Calcium flux was measured using the FlexStation 3 (Molecular Devices). […] Antagonist activity was analyzed as a concentration dependent decrease in the EC80 acetylcholine response. […] The IC50 of the compounds was calculated from the dose response curve.
Reported IC50 values follow for various compounds

input: IC50 lookup needed for N#Cc1ccc(N2C3CCC2CN(C(=O)[C@H]2C[C@H](Oc4cccc5ncsc45)C2)C3)nc1 [Example 197] , thanks.
output: 100 to 1000 nM

Further cases:
input: If you can, please state the reported IC50 value of O=C(CCOCc1cccc2ncsc12)N1C[C@H]2CC[C@@H](C1)N2c1ccncc1F [Example 85] .
output: < 100 nM

input: Can you look up the measured IC50 of N#Cc1ccc(N2C3CCC2CN(C(=O)CCCc2cccc4ncnn24)C3)nc1 [Example 199] for me?
output: < 100 nM

input: Form field: reported IC50 of O=C(CCNCc1cccc2ncsc12)N1C[C@H]2CC[C@@H](C1)N2c1ccncc1F [Example 8]
output: < 100 nM

input: Query (compound): O=C(CNCCc1cccc2ncsc12)N1CC2CCC(C1)N2c1ccncc1F [Example 15] ; field requested: IC50
output: 100 to 1000 nM

input: Look up IC50: O=Cc1ccc(N2C3CCC2CN(C(=O)CCOCc2cccn4ncnc24)C3)nc1 [Example 190]
output: < 100 nM

---

Measured pIC50 values are reported for all entries that follow.
# Target Of Assay: UniProt:P20309
# Sequence (P20309 whole entry): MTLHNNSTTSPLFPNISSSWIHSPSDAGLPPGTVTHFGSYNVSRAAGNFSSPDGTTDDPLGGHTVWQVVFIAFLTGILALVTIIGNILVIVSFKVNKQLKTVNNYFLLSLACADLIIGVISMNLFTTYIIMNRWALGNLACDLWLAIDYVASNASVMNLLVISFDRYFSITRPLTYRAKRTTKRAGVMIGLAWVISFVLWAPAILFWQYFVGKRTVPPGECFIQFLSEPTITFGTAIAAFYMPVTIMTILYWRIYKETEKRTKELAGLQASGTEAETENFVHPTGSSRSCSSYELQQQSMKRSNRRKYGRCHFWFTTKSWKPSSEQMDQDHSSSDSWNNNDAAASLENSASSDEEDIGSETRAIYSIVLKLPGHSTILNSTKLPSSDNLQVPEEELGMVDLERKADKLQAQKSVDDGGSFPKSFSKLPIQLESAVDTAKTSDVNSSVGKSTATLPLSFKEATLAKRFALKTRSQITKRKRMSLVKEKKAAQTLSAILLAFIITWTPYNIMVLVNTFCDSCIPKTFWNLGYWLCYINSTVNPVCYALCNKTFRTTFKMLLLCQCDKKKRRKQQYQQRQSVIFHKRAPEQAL
# Method: In vitro functional assay of muscarinic acetylcholine receptor activity, M3
# Assay type: cell-based
# Run Conditions: antagonist IC50 at M3; read-out: M3 IC50
# Procedure: [The procedure below names another target; the source lists this target under the same test.] CHO-K1 cells stably expressing human M1 receptor with Aequorin (Perkin Elmer) were grown in F12 media, 10% FBS with 0.4 mg/mL geneticin and […]. Cells were grown to confluence and frozen down to be assayed at a later date. […] Calcium flux was measured using the FlexStation 3 (Molecular Devices). […] Antagonist activity was analyzed as a concentration dependent decrease in the EC80 acetylcholine response. […] The IC50 of the compounds was calculated from the dose response curve.
pIC50: −log10 of the molar value.

input: Look at this compound and give its reported pIC50. Cc1cc(F)cnc1N1CCN(C(=O)CCCc2cccc3ncccc23)CC1C (centres unmarked) [Example 62]
output: 5.00 to 6.00

input: // query pIC50 value for entry C[C@H]1CN(c2cc[nH]c(=O)c2)CCN1C(=O)CCS(=O)(=O)c1cccc2ncsc12 [Example 117]
output: < 5.00

input: # query: pIC50 of entry Cc1cc(F)cnc1N1CCN(C(=O)CNCc2cccc3ncsc23)[C@@H](C)C1 [Example 89]
output: < 5.00

Continuing:
input: pIC50 for Cc1cc(F)cnc1N1CCN(C(=O)CCCc2cccc3ncccc23)C(C)C1 (centres unmarked) [Example 59] ?
output: 6.00 to 7.00

input: Please report the recorded pIC50 for N#Cc1ccc(N2C3CCC2CN(C(=O)CCN(Cc2cccc4ncnn24)C2CC2)C3)nc1 [Example 164] .
output: 5.00 to 6.00

input: Any idea what its pIC50 is? The compound is O=C(CCCc1cccc2ncccc12)N1CCN(c2ccncc2F)CC1 [Example 67]
output: 5.00 to 6.00

input: Field request: pIC50 | item: O=C(CCS(=O)(=O)c1cccc2ncsc12)N1CC=C(c2ccc(C(F)(F)F)cn2)CC1 [Example 140]
output: 5.00 to 6.00

input: Query: pIC50; subject: O=C(CCS(=O)(=O)c1cccc2ncsc12)N1CCN(c2ccncc2F)CC1 [Example 16]
output: < 5.00
